Molecular target: T1, RBFOX1 RRM (Homo sapiens, UniProt Q9NWB1 109-208)
T1 sequence: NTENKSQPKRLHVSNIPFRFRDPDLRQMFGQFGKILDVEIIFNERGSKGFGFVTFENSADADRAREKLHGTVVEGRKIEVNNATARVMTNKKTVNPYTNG
Assay: EMSA; HiTS-Eq, 1 nM pool, 10 min; buffer printed only for the single-RNA assays: 10 mM Tris pH 7.5, 150 mM NaCl, 3.4 mM EDTA, 0.001% NP-40, 30 C
Conditions: tags: His6 N-terminal (pET28a); label: 5' 32P
Over roughly 16,000 sequences, “ka relative to ugcaugu” has its median near 0.0091; the highest 2% begin near 0.032. The list comes from a sample in which the highest values are over-represented; it also holds close analogues and randomly drawn sequences.
Catalogue of binders with associated binding signal
parameter: binding signal

1) CGGGGCU (DNA:RNA) RNA: GGGAGACCGGAAUUCAGAUUGUCCCGGGGCUUUAAAUCCCGUCGUAGCCACCA DNA 1: CAATCTGAATTCCGGTCTCCC DNA 2: TGGTGGCTACGACGGGATT : 0.0294 KA relative to UGCAUGU
2) CGGAGUC (DNA:RNA) RNA: GGGAGACCGGAAUUCAGAUUGUCCCGGAGUCUUAAAUCCCGUCGUAGCCACCA DNA 1: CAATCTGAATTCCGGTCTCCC DNA 2: TGGTGGCTACGACGGGATT : 0.0303 KA relative to UGCAUGU
3) GGGAAUC (DNA:RNA) RNA: GGGAGACCGGAAUUCAGAUUGUCCGGGAAUCUUAAAUCCCGUCGUAGCCACCA DNA 1: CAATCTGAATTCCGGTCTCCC DNA 2: TGGTGGCTACGACGGGATT : 0.0328 KA relative to UGCAUGU
4) GGGAGUC (DNA:RNA) RNA: GGGAGACCGGAAUUCAGAUUGUCCGGGAGUCUUAAAUCCCGUCGUAGCCACCA DNA 1: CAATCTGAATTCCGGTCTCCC DNA 2: TGGTGGCTACGACGGGATT : 0.0339 KA relative to UGCAUGU
5) CGGGCUU (DNA:RNA) RNA: GGGAGACCGGAAUUCAGAUUGUCCCGGGCUUUUAAAUCCCGUCGUAGCCACCA DNA 1: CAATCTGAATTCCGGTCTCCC DNA 2: TGGTGGCTACGACGGGATT : 0.0317 KA relative to UGCAUGU
6) CGGAUCU (DNA:RNA) RNA: GGGAGACCGGAAUUCAGAUUGUCCCGGAUCUUUAAAUCCCGUCGUAGCCACCA DNA 1: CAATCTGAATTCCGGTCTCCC DNA 2: TGGTGGCTACGACGGGATT : 0.0232 KA relative to UGCAUGU
7) GGAGUCU (DNA:RNA) RNA: GGGAGACCGGAAUUCAGAUUGUCCGGAGUCUUUAAAUCCCGUCGUAGCCACCA DNA 1: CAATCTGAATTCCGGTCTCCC DNA 2: TGGTGGCTACGACGGGATT : 0.0284 KA relative to UGCAUGU
8) GGAUCUC (DNA:RNA) RNA: GGGAGACCGGAAUUCAGAUUGUCCGGAUCUCUUAAAUCCCGUCGUAGCCACCA DNA 1: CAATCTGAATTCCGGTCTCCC DNA 2: TGGTGGCTACGACGGGATT : 0.0209 KA relative to UGCAUGU
9) GCGGAUC (DNA:RNA) RNA: GGGAGACCGGAAUUCAGAUUGUCCGCGGAUCUUAAAUCCCGUCGUAGCCACCA DNA 1: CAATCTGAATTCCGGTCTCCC DNA 2: TGGTGGCTACGACGGGATT : 0.00958 KA relative to UGCAUGU
